- assay-comment: chemical genetic growth profiling, strain panel (AID 1159580);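 further: tested at 20 µM; growth read once vehicle control cultures reached saturation at 30 °C; 1 = growth at the plate median or of vehicle wells; lower values mean less growth of the strain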
- measurement-conditions: S. cerevisiae deletion strains, growth OD, strain wtn01, hits give low values
About 2,000 (36%) of roughly 5,500 compounds were called active. About 18% were inconclusive and are not listed. The list shows a part of the results.
observable: normalized growth
Give bare numbers.

compound: CCOC(=O)C(Cc1ccc(O)cc1)NC(C)=O (stereo unspecified)
normalized growth: 1.01

compound: COc1cc(NC(C)CCCN)c2ncccc2c1 (stereo unspecified)
normalized growth: 1.02

compound: CCC(C)C(=O)O[C@H]1[C@H](O)C2C(CN3CC(C)CCC3[C@@]2(C)O)C2C[C@]34O[C@]5(O)C(OC(=O)C(C)(O)C(C)O)CC[C@@]3(C)C5C(OC(C)=O)[C@@H](OC(C)=O)C4[C@@]21O (stereo partly specified)
normalized growth: 0.997

compound: CC(=O)OCC(=O)[C@@]1(O)CCC2C3CCC4=CC(=O)CC[C@]4(C)C3C(=O)C[C@@]21C (stereo partly specified)
normalized growth: 1.04

compound: CCCCCCCCCCCCCCCC(=O)OC/C=C(C)/C=C/C=C(C)/C=C/C1=C(C)CCCC1(C)C
normalized growth: 0.972

// for each compound in input: emit normalized growth
1. CC1=C(/C=C/C(C)=C/C=C/C(C)=C/C=C/C=C(C)/C=C/C=C(C)/C=C/C23OC2(C)CC(O)CC3(C)C)C(C)(C)CC(O)C1 (stereo unspecified)
2. CC(C[N+](C)(C)C)OC(N)=O (stereo unspecified)

Result ::
1.02
1

Here are 2 compounds. What values of normalized growth were reported for them?
1. CCOC(=O)C1(O)Oc2cc(OC)cc(OC)c2C(=O)C1c1ccccc1 (stereo unspecified)
2. CN(C)c1ccc(C(=C2C=CC(=[N+](C)C)C=C2)c2ccc(N(C)C)cc2)cc1

Result ::
0.973
0.535

I have 7 compounds here; please give me normalized growth for each one.
1. CC1CC2C3CCC4=CC(=O)C=C[C@]4(C)[C@@]3(F)[C@@H](O)C[C@]2(C)[C@@]1(O)C(=O)CO (stereo partly specified)
2. CCN(CCO)CCCC(C)Nc1ccnc2cc(Cl)ccc12 (stereo unspecified)
3. COC1=CC(=O)C[C@@H](C)[C@]12Oc1c(Cl)c(OC)cc(OC)c1C2=O
4. CC(C)CC(NC(=O)C(Cc1ccccc1)NC(=O)CNC(=O)CNC(=O)C(N)Cc1ccc(O)cc1)C(=O)O (stereo unspecified)
5. C[C@H]1CC2C([C@@H](O)C[C@@]3(C)C2CC[C@]3(O)C(=O)CO)[C@@]2(C)C=CC(=O)C=C12 (stereo partly specified)
6. CC(=O)OCC[N+](C)(C)C
7. CC(CCc1ccccc1)NC(C)C(O)c1ccc(O)cc1 (stereo unspecified)

Result ::
[0.963, 1.01, 0.998, 0.987, 1.03, 0.996, 1]

Answer for every listed entry: what is its normalized growth? The entries follow.
1. COCCc1ccc(OCC(O)CNC(C)C)cc1 (stereo unspecified)
2. NCC1CCC(C(=O)O)CC1 (stereo unspecified)

Result ::
[1.05, 0.979]

Items follow; give normalized growth for each.
1. COP(=O)(OC)OC=C(Cl)Cl
2. CC(=O)OCC(=O)[C@H]1CCC2C3CCC4=CC(=O)CC[C@]4(C)C3CC[C@@]21C (stereo partly specified)
3. CC(=O)N[C@@H](CC(C)C)C(=O)O

Result ::
1. 0.995
2. 0.949
3. 0.991

All figures here come from PubChem BioAssay AID1159580.
